- assay text: binders of probe aFSTL3 on microarray, primary screen, stem cell growth factor project, biochemical, small-molecule microarray, fluorescence 635/667 (AID 1064);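 also: measures binding of the biotinylated anti-FSTL3 antibody to printed compounds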
- condition summary: higher = more signal
reported property: composite z-score
// keep it numeric: no unit symbol after the value

In the examples that follow, each entry is paired with its recorded composite z-score.
compound	composite z-score
C=CCNC(=O)[C@H]1[C@@H]2C(=O)O[C@@H](c3ccccc3)[C@@H](c3ccccc3)N2[C@@H](c2ccc(OCCO)cc2)[C@]12C(=O)N(C(=O)OCCOC)c1ccc(C#Cc3ccc(OC)cc3)cc12	0.0886
COc1cc(NN2C(C(O)c3ccccc3)C=CC3C(=O)N(C)C(=O)C32)cc(OC)c1OC (configuration not stated)	0.0217
CC1CC/C=C\[C@H]2OC34C=CCN(C(C)(C)C)C(=O)[C@H]3N(C(CO)C(C)C)C(=O)[C@@H]4C2C(=O)O1 (some centres not stated)	-0.259
COc1cc(CO)cc(I)c1O[C@H]1C=C(C(=O)NCCO)C[C@@H](NCC2CCCCC2)[C@@H]1O	-0.149
COC(=O)C(CC#Cc1ccc2c(c1)[C@]1(C(=O)N2)[C@H](c2ccc(O)cc2)N2[C@H](c3ccccc3)[C@H](c3ccccc3)OC(=O)[C@H]2[C@@H]1C(=O)N1CCCCCCC1)C(=O)OC	3.08
[N-]=[N+]=Nc1ccccc1C[C@]1(C(=O)O)N=C(c2ccc(OCCCO)cc2)O[C@H]1c1ccccc1	0.0867
CCN(CC)c1ccc(N2CC=CC34O[C@@H]5/C=C\CCC(C)OC(=O)C5[C@H]3C(=O)N(C(C)CO)[C@@H]4C2=O)cc1 (some centres not stated)	-0.0462
COCC1=C2[C@@H](CCc3ccccc3)OB(O)C[C@@H]2[C@@H]2C(=O)N(C)C(=O)[C@@H]2C1	-0.136

// query composite z-score value for entry `C=CCN1C(=O)[C@]2(O[C@H](CCO)[C@@H]([Si](C)(C)c3ccc(OC)cc3)[C@@H]2C)c2cc(NC(=O)c3ccc(OC)cc3)ccc21` -0.429

// query composite z-score value for entry CC1(C)C(=O)C(c2ccccc2)=C2CN3C(=O)N(CCc4ccccc4)C(=O)C3(Cc3ccc(F)cc3)C=C21 (configuration not stated) 0.817

// query composite z-score value for entry `C=C(COC)C(=O)CC[C@@H](OC(=O)c1cccnc1)c1ccccc1OCCO` 0.403

// query composite z-score value for entry `C=C[C@@H](OC)[C@H](OC(=O)Nc1ccc(OC)cc1)c1ccc(OC)c(O)c1` 0.54
